Catalogue of CC50 readings, one per entry.
assay: Cytotoxicity against human TZM-b1 cells assessed as reduction in cell viability by CCK8 assay; format: cell-based
metric.name: CC50

| compound | result |
| --- | --- |
| O=C1Nc2ccc(Cl)cc2[C@@](C#CC2CC2)(C(F)(F)F)O1 [EFAVIRENZ] | 20 µM |
| CC1(C)CC(NC(=O)C(=O)Nc2ccc(F)nc2)CC(C)(C)N1 | > 300 µM |
| O=C(Nc1ccc(Br)nc1)C(=O)NC1CCNC2(CCCCC2)C1 (stereo unspecified) | 180 µM |
| CC1(C)CC(NC(=O)C(=O)Nc2ccc(Cl)cn2)CC(C)(C)N1 | > 300 µM |
| CC1(C)CC(NC(=O)C(=O)Nc2ccnc(Br)c2)CC(C)(C)N1 | 295 µM |
| CC1(C)CC(NC(=O)C(=O)Nc2ccnc(F)c2)CC(C)(C)N1 | > 300 µM |
| O=C(Nc1ccc(F)nc1)C(=O)NC1CCNC2(CCCCC2)C1 (stereo unspecified) | > 300 µM |
| CC1(C)CC(NC(=O)C(=O)Nc2ccncc2)CC(C)(C)N1 | > 300 µM |
| CC1(C)CC(NC(=O)C(=O)Nc2cnc(F)c(F)c2)CC(C)(C)N1 | > 300 µM |
| CC1(C)CC(NC(=O)C(=O)Nc2ccc(Br)cn2)CC(C)(C)N1 | 71 µM |
| CC1(C)CC(NC(=O)C(=O)Nc2ccc(I)cn2)CC(C)(C)N1 | 205 µM |
| CC1(C)CC(NC(=O)C(=O)Nc2cccnc2)CC(C)(C)N1 | > 300 µM |
| CC1(C)CC(NC(=O)C(=O)Nc2ccc(C(F)(F)F)cn2)CC(C)(C)N1 | > 300 µM |
| CC1(C)CC(NC(=O)C(=O)Nc2cccnc2Cl)CC(C)(C)N1 | > 300 µM |
| Cc1cccc(NC(=O)C(=O)NC2CC(C)(C)NC(C)(C)C2)n1 | 257 µM |
| CC1(C)CC(NC(=O)C(=O)Nc2ccc(F)cn2)CC(C)(C)N1 | > 300 µM |
| CC1(C)CC(NC(=O)C(=O)Nc2ccc(Cl)cc2)CC(C)(C)N1 | 116 µM |
| CC1(C)CC(NC(=O)C(=O)Nc2ccc(Cl)nc2)CC(C)(C)N1 | > 300 µM |
| CC1(C)CC(NC(=O)C(=O)Nc2ccnc(Cl)c2)CC(C)(C)N1 | > 300 µM |
| COc1ccc(NC(=O)C(=O)NC2CC(C)(C)NC(C)(C)C2)cn1 | > 300 µM |
| CC1(C)CC(NC(=O)C(=O)Nc2ccc(Br)nc2)CC(C)(C)N1 | > 300 µM |
